- study-target: T1, human OT7T175 (metastin receptor) (human, UniProt Q969F8 1-398)
- T1 construct: expressed on CHO cells (hOT7T175-expressed CHO cells; hOT7T175/CHO); also called hOT7T175; h0T7T175
- T1 sequence (Q969F8 whole entry L364H): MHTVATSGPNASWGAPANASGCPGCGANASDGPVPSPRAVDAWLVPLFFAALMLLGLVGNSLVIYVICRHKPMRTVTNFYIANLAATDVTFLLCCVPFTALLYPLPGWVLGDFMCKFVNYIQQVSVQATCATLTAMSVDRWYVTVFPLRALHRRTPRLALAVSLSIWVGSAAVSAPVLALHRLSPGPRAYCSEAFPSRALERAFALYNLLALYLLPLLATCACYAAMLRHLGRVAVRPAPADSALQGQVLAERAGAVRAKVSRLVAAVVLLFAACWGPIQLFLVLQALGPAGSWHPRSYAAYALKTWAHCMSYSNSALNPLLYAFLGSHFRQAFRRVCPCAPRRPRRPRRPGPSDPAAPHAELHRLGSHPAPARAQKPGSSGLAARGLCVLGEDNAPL
- protocol-details: FMAT competition with Cy-5-labeled metastin (40-54), hOT7T175-expressed CHO cells
Square brackets hold non-standard residues; d marks the D form. Ends that are not written are not given here. * marks the point of attachment. Propanoyl(3-indol-3-yl) = O=C(CCc1c[nH]c2ccccc12)*; Phe(3-F) = N[C@@H](Cc1cccc(F)c1)C(=O)O; Arg(Me) = CNC(=N)NCCC[C@H](N)C(=O)O
# pIC50 per record follows
Please note pIC50 is a logarithmic value: minus log10 of concentration in mol/L. Answer with that number alone.

Examples from the recorded data:
binder	readout-kind	result-number
{Propanoyl(3-indol-3-yl)}-NSFGLRF-NH2 (SMILES CC(C)C[C@H](NC(=O)CNC(=O)[C@H](Cc1ccccc1)NC(=O)[C@H](CO)NC(=O)[C@H](CC(N)=O)NC(=O)CCc1c[nH]c2ccccc12)C(=O)N[C@@H](CCCNC(=N)N)C(=O)N[C@@H](Cc1ccccc1)C(N)=O) [Compound No. 114: des(1-3)-3-(3-Indolyl)propionyl-MS10]	pIC50	6.26
[dY]NTNSFGL[Arg(Me)]F-NH2 (N-terminus assumed; SMILES CNC(=N)NCCC[C@H](NC(=O)[C@H](CC(C)C)NC(=O)CNC(=O)[C@H](Cc1ccccc1)NC(=O)[C@H](CO)NC(=O)[C@H](CC(N)=O)NC(=O)[C@@H](NC(=O)[C@H](CC(N)=O)NC(=O)[C@H](N)Cc1ccc(O)cc1)[C@@H](C)O)C(=O)N[C@@H](Cc1ccccc1)C(N)=O) [Compound No. 205: [D-Tyr1,Thr3,Arg(Me)9]MS10]	pIC50	6.59

Turning now to a further binder:
Exam item: Tell me the measured pIC50 of YNWNSFGLR[Phe(3-F)]-NH2 [Compound No. 197: [Phe(3F)10]MS10] , please.
Marked response: 6.77
